Tested on: Human papillomavirus type 1a E7 protein (residues 1-88)
Experiment: HPV1a E7 small-molecule binders, primary screen, biochemical, small-molecule microarray, residues 1-88, 635 nm (AID 1129)
Settings: small-molecule microarray binding, fluorescence 635 nm; higher = more signal
Rule: composite z-score of 0.4 or more gives 1; anything lower gives 0.

Use the examples below as a reference point.
O=C1NC(=O)C2C1C=CC(C(O)c1ccccn1)N2Nc1ccc(Cl)cc1Cl (configuration not stated): 1
CN(C)C(=O)[C@@]1(CCC(=O)OC(C)(C)C)N=C(c2ccc(OCCCO)cc2)O[C@H]1c1ccccc1CN=[N+]=[N-]: 1
O=C(CS)NCCCCCNC(=O)[C@@H]1C[C@@H]2C(=O)N[C@@H](Cc3ccccc3)C(=O)N2[C@@H]1c1cccc(OCCO)c1: 1

Query block: Textbook exercise: given the entry COC(=O)[C@@]1(Cc2ccc(F)cc2)[C@H]2c3cc(C(=O)N4CCCC4)n(CC4CC4)c3C[C@H]2CN1C(=O)c1ccccc1 , state whether its composite z-score is greater than or equal to 0.4.
Result block: 1

Query block: Determine whether measured composite z-score meets or exceeds 0.4 for CC(C)[C@H]1NC(=O)[C@@]23C(=O)N[C@@H](Cc4ccccc4)C2[C@H](C)[C@@]2(C)O[C@H]2C3/C=C/CCC/C=C/CNC(=O)[C@H](Cc2ccccc2)NC1=O (some centres not stated)
Result block: 0

Query block: hey, is composite z-score for this one >= 0.4? O=C1OCCC=C[C@H]2OC34C=CCN(c5ccc(Cl)cc5)C(=O)[C@H]3N(CCCCCCO)C(=O)[C@@H]4C12 (some centres not stated)
Result block: 0

Query block: Given CC(C)(C)OC(=O)CC[C@]1(C(=O)N2CCCCC2)COC(c2ccc(OCCCO)cc2)=N1 , state whether its composite z-score is at least 0.4.
Result block: 1

Query block: Evaluate NCCCCCNC(=O)[C@@H]1C[C@@H]2C(=O)N3CCC[C@H]3C(=O)N2[C@@H]1c1ccc(O)cc1 : composite z-score at minimum 0.4?
Result block: 1

Query block: Confirm if composite z-score reported for the molecule CN1C(=O)C2C=CC(C(O)c3cc(C(F)(F)F)cc(C(F)(F)F)c3)N(Nc3ccccc3)C2C1=O (configuration not stated) is 0.4 or above.
Result block: 1

Query block: Is the recorded value of composite z-score equal to or greater than 0.4 for this molecule? O=C1OCCC/C=C\[C@H]2OC34C=CCN(c5ccc6ccccc6c5)C(=O)[C@H]3N(CCCO)C(=O)[C@@H]4C12 (some centres not stated)
Result block: 0

Query block: Test whether the molecule CCCCCN1CC=CC23O[C@@H]4C=CCOC(=O)[C@@H]4[C@H]2C(=O)N(CCO)[C@@H]3C1=O (some centres not stated) records composite z-score of 0.4 or higher.
Result block: 0

Query block: Decide: is the reported value of composite z-score for COCCOC(=O)N1C(=O)[C@@]2(c3ccccc31)[C@H](c1ccc(OCCO)cc1)N1[C@H](c3ccccc3)[C@H](c3ccccc3)OC(=O)[C@H]1[C@@H]2C(=O)N1CCCCCCC1 equal to or greater than 0.4?
Result block: 1

Query block: Does the reported composite z-score for CC(C)[Si]1(C(C)C)OCc2cc(-c3ccc(-c4ccc(Cl)c(Cl)c4)o3)nc(CCc3ccccc3)c21 fall at or above the 0.4 mark?
Result block: 0

Query block: API: above_or_equal(metric=composite z-score, cutoff=0.4) for item C=CCN1C(=O)[C@]2(O[C@H](CCO)[C@@H]([Si](C)(C)c3ccc(OC)cc3)[C@@H]2C)c2cc(NC(=O)c3ccc(OC)cc3)ccc21
Result block: 1

Query block: Does composite z-score meet or surpass 0.4 for COCCCNC(=O)[C@@]1(c2ccc([N+](=O)[O-])cc2)CC(=O)N(C(C)C)[C@@H]1c1ccc(CO)cc1 ?
Result block: 0

Query block: Item COCCOC(=O)N1C(=O)[C@@]2(c3cc(C#CC4=CCCCC4)ccc31)[C@H](C(=O)N1CCCCCCC1)[C@H]1C(=O)O[C@H](c3ccccc3)[C@H](c3ccccc3)N1[C@@H]2c1ccc(OCCO)cc1 with composite z-score of 0.4 or above?
Result block: 1

Query block: Does composite z-score meet or surpass 0.4 for O=C1[C@@]23C=C(Br)[C@H](C[C@@H]2COC3)[C@@]12CO2 ?
Result block: 0

====

Target: Follistatin (Homo sapiens) (UniProt P19883)
Sequence (P19883 whole entry, looked up): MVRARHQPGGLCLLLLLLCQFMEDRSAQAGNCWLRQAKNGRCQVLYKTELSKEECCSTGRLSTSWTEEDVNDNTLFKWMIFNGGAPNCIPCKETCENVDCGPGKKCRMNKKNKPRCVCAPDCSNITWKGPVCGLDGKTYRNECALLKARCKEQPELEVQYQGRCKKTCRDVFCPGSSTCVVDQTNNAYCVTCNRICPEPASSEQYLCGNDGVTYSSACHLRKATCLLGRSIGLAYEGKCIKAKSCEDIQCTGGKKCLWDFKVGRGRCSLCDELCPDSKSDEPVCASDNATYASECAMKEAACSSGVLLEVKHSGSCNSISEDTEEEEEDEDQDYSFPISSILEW
Experiment: follistatin binders on small-molecule microarrays, primary screen, biochemical, small-molecule microarray, 635/667 nm fluorescence (AID 1132)
Settings: FST binding, 635 nm fluorescence, higher = more signal
// criterion not met strictly below 1 in composite z-score; criterion met otherwise

CO[C@H]1O[C@H](CO)[C@@H](OC(=O)c2ccc(Br)cc2)[C@@H]2OC(=O)[C@H](Cc3ccccc3)C/C=C/C[C@@H](Cc3ccccc3)C(=O)O[C@@H]12: criterion not met
COCCOC(=O)N1C(=O)[C@@]2(c3cc(C#CC4=CCCCC4)ccc31)[C@H](c1ccc(O)cc1)N1[C@H](c3ccccc3)[C@H](c3ccccc3)OC(=O)[C@H]1[C@@H]2C(=O)NC[C@H](O)c1ccccc1: criterion met
COCCOC(=O)N1C(=O)[C@@]2(c3cc(C#CC4(O)CCCCCC4)ccc31)[C@H](C(=O)N1CCN(c3ncccn3)CC1)[C@H]1C(=O)O[C@H](c3ccccc3)[C@H](c3ccccc3)N1[C@@H]2c1ccccc1OCCO: criterion met
COC(=O)C(CC#Cc1ccc2c(c1)[C@]1(C(=O)N2)[C@H](c2ccc(O)cc2)N2[C@H](c3ccccc3)[C@H](c3ccccc3)OC(=O)[C@H]2[C@@H]1C(=O)N1CCCCCCC1)C(=O)OC: criterion met
COCCOC(=O)N1C(=O)[C@@]2(c3cc(C#Cc4ccc(OC)cc4)ccc31)[C@H](c1ccc(OCCO)cc1)N1[C@H](c3ccccc3)[C@H](c3ccccc3)OC(=O)[C@H]1[C@@H]2C(=O)Nc1nc2ccccc2s1: criterion met
COCCOC(=O)N1C(=O)[C@@]2(c3ccccc31)[C@H](c1ccc(OCCO)cc1)N1[C@H](c3ccccc3)[C@H](c3ccccc3)OC(=O)[C@H]1[C@@H]2C(=O)N1CCCCCCC1: criterion met
[N-]=[N+]=Nc1ccccc1C[C@]1(C(=O)O)N=C(c2ccc(OCCCO)cc2)O[C@H]1c1ccccc1N=[N+]=[N-]: criterion not met
C=CC1c2cc(O)c(OC)cc2CCN1Cc1ccc([N+](=O)[O-])o1 (configuration not stated): criterion not met

Query block: Hi, just wondering whether Cc1ccc(S[C@]2(C(=O)NC(C)C)CC(=O)N(Cc3ccccc3Cl)[C@@H]2c2ccc(CO)cc2)cc1 shows composite z-score of 1 or higher.
Result block: criterion not met

Query block: Assess whether reported composite z-score for COc1cc(NN2C(C(O)c3ccccc3)C=CC3C(=O)N(C)C(=O)C32)cc(OC)c1OC (configuration not stated) sits at 1 or higher.
Result block: criterion not met

Query block: // inclusive: composite z-score at least 1? input: O=C1O[C@H](c2ccccc2)[C@H](c2ccccc2)N2[C@H]1[C@@H](C(=O)Nc1nc3ccccc3s1)[C@]1(C(=O)Nc3ccc(C#CC4=CCCCC4)cc31)[C@H]2c1ccc(O)cc1
Result block: criterion met

====

Biological target: Alpha-bungarotoxin (Bungarus multicinctus) (UniProt P60615)
Sequence (P60615 whole entry, looked up): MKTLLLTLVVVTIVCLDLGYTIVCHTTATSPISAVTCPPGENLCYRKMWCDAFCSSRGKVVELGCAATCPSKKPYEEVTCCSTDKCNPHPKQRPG
Experiment: alpha-bungarotoxin binders on microarray, profiling panel, artefact control for SMM control protein annotation, biochemical, small-molecule microarray, Alexa647 label, 635/667 nm fluorescence (AID 1117)
Details: alpha-BTX-A647 binding fluorescence, higher = more signal
Rule: composite z-score under 0.4 gives F, otherwise T.

Query block: Could you verify whether the entry C=CCC(OC(C)=O)[C@@H]1[C@@H](N(Cc2cc3ccccc3o2)C(=O)c2ccc(-c3ccccc3)cc2)c2cc(OCCCO)ccc2N1C(=O)Cc1ccc(OC)cc1 (stereo not given in full) shows composite z-score of no less than 0.4?
Result block: F

Query block: composite z-score >= 0.4 for Cc1ccc(S[C@]2(C(=O)NCc3ccccc3)CC(=O)N(Cc3cc(C(F)(F)F)cc(C(F)(F)F)c3)[C@@H]2c2ccc(CO)cc2I)cc1 ?
Result block: F

Query block: # check: composite z-score of C=C[C@@H](C)[C@H](O)c1ccc(OCCO)cc1 is greater than or equal to 0.4
Result block: F

Query block: Threshold query (composite z-score >= 0.4) on CC(C)C[C@@H]1NC(=O)[C@@H]2C[C@H](C(=O)NCCCCCC[N+](C)(C)C)[C@H](c3cccc(OCCO)c3)N2C1=O
Result block: T

Query block: Does the reported composite z-score for CC(CO)N1C(=O)[C@@H]2[C@H]3C(=O)OCC=C[C@H]3OC23C=CCN(c2ccc(Cl)cc2)C(=O)[C@@H]13 (stereo not given in full) fall at or above the 0.4 mark?
Result block: F

Query block: Check this molecule for composite z-score at or above 0.4: COc1ccc([Si](C)(C)[C@H]2[C@H](CC(=O)N3Cc4ccccc4C[C@H]3CO)O[C@@]3(C(=O)N(Cc4ccc(N5C(=O)c6cccc7cccc5c67)cc4)c4ccccc43)[C@@H]2C)cc1
Result block: T

Query block: Reported composite z-score reaches at least 0.4 for C=C(CCCC)C(=O)CC[C@H](OC(=O)c1ccccc1-c1ccccc1C(=O)O)c1ccccc1OCCO ?
Result block: F

Query block: Confirm if composite z-score reported for the molecule CCOC(=O)C1=CC[C@@H](c2ccccc2)N(S(=O)(=O)c2ccc(C)cc2)[C@H]1c1cccc(OC)c1 is 0.4 or above.
Result block: T

Entry source: PubChem BioAssay
